The reported numbers originate from patent US20240084042A1.

Molecular target: T1, cynomolgus monkey KLK5 (cynomolgus monkey, UniProt Q9Y337 67-293 (human entry))
T1 construct: also called cyno KLK5
T1 chain: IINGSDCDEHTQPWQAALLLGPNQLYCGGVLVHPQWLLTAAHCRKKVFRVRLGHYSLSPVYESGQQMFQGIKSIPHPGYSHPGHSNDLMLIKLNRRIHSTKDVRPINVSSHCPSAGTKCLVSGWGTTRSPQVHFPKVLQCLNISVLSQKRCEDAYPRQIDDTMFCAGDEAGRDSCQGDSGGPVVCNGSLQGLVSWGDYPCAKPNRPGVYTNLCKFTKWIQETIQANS
Assay: SPR, one-armed monovalent antibody
MEASURED ENDPOINT: koff (s⁻¹)
Give the quantity in s⁻¹, number only.

Reported koff for OA.hu.9H5.H14L4.G54A.H89V.S95Y (antibody, V domains shown, One-armed (OA) monovalent anti-KLK5 antibody with a human IgG1 Fc, with Q38E/Q39K; constant regions and dummy Fc chain not specified) VH: EVQLVESGGGLIQPGGSLRLSCAASGFSLSSYGVSWVRKAPGKGLEYVGFIGSAGFAYYASWAKSRFTISRDNSKNTLYLQMNSLRAEDTAVYYCARDDVGGGKSLDIWGQGTLVTVSS VL: DIQMTQSPSSLSASVGDRVTITCQASQSISSYLSWYQEKPGKAPKLLIYSASTLASGVPSRFSGSGSGTDFTLTISSLQPEDFATYYCVQDYTSYNVDNTFGGGTKVEIK was 7.36e-05
